# Method Description: Solid solubility test (2 h and 24 h)
# Assay type: physicochemical
# Condition Label: FaSSIF-V1, 37 °C, pH 6.5, fassif, thermodynamic from solid, Test ES4: FaSSIF-V1 (pH 6.5), 24 h; read-out: Solubility measured at 24 h
Quantity: solubility at 24 h

Inquiry: Query: solubility at 24 h; subject: `C=CC(=O)Nc1cc(Nc2ncnc(-c3cn(C)c4ccccc34)n2)c(OC)cc1N(C)CCN(C)C`
Reply text: > 2000 µg/mL

* * *

Listed below: Purity values for each entry.
# Method Description: Solid storage stability test
# Type: physicochemical
# Condition Label: solid/60° C./closed container/1 week (Test BS1)
API: value field is a number in %; no unit string.

Check out these entries, answers already filled in.
• C=CC(=O)Nc1cc(Nc2ncnc(-c3cn(C)c4ccccc34)n2)c(OC)cc1N(C)CCN(C)C [Example 7] = 99.4
• C=CC(=O)Nc1cc(Nc2ncnc(-c3cn(C)c4ccccc34)n2)c(OC)cc1N(C)CCN(C)C [Example 10] = 99.9
• C=CC(=O)Nc1cc(Nc2ncnc(-c3cn(C)c4ccccc34)n2)c(OC)cc1N(C)CCN(C)C [Example 3] = 99.6
• C=CC(=O)Nc1cc(Nc2ncnc(-c3cn(C)c4ccccc34)n2)c(OC)cc1N(C)CCN(C)C [Example 2] = 98.2
• C=CC(=O)Nc1cc(Nc2ncnc(-c3cn(C)c4ccccc34)n2)c(OC)cc1N(C)CCN(C)C [Example 1] = 99.9

Inquiry: Entry under review: C=CC(=O)Nc1cc(Nc2ncnc(-c3cn(C)c4ccccc34)n2)c(OC)cc1N(C)CCN(C)C [Example 4] . Reported Purity?
Reply text: 99.9

Inquiry: Query: Purity; subject: C=CC(=O)Nc1cc(Nc2ncnc(-c3cn(C)c4ccccc34)n2)c(OC)cc1N(C)CCN(C)C [Example 5]
Reply text: 99.8

Inquiry: Any idea what its Purity is? The compound is C=CC(=O)Nc1cc(Nc2ncnc(-c3cn(C)c4ccccc34)n2)c(OC)cc1N(C)CCN(C)C [Example 6]
Reply text: 99.6

Inquiry: So what does the record say about Purity for C=CC(=O)Nc1cc(Nc2ncnc(-c3cn(C)c4ccccc34)n2)c(OC)cc1N(C)CCN(C)C [Example 8] ?
Reply text: 99.8

Inquiry: GET /values?readout=Purity&item= C=CC(=O)Nc1cc(Nc2ncnc(-c3cn(C)c4ccccc34)n2)c(OC)cc1N(C)CCN(C)C [Example 9]
Reply text: 98.2
